molecular target: hPD-L1-His (human, UniProt Q9NZQ7 19-290, labelled with RED-NHS676 dye); test: MST; His-tagged PD-L1 (hPD-L1 200 nM, mPD-L1 800 nM) labelled 1:1 with 100 nM RED-NHS676 dye in PBST for 30 min; peptide diluted from 400 μM to 0.012 μM; standard capillaries, Monolith NT.115; details: both partners purified
Sequence (Q9NZQ7 19-290): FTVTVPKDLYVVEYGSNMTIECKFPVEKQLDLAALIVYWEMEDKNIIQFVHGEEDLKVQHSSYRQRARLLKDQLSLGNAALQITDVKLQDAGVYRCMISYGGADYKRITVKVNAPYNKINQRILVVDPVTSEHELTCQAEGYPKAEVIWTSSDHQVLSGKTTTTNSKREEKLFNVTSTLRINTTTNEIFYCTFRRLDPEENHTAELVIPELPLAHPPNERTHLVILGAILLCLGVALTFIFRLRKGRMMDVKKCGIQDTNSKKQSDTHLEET
No end group written: not given here.
READOUT: Kd (nM)
Answer format: numeric, nM implied, no suffix.

So, N(D‑galactose)YSKPTDRQYHF (L-type peptide ^LPPA-1, L-amino-acid analogue of the PD-L1-targeting D-peptide ^DPPA-1; printed in three-letter code; source: synthetic peptide (Fmoc solid-phase synthesis, purified by reverse-phase HPLC)) [D-gal-^LPPA-1] ? Its Kd was 47
